- target-or-system: T1, human CD123 (human, UniProt P26951 19-305, limits assumed)
- T1 construct: Construct on the chip is not described; also called CD123 chip
- T1 sequence (looked up): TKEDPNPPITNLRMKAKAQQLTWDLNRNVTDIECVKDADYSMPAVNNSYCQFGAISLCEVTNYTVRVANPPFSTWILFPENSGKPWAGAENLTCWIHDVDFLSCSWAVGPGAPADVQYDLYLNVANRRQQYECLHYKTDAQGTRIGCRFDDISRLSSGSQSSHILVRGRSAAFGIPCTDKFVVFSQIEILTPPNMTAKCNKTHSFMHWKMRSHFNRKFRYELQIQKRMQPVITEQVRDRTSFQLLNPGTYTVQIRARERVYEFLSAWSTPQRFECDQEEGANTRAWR
- method-notes: Biacore, Fab-His on CD123 (Example 3; the sheet names no assay)
endpoint-label: pKd
Quick note: pKd values are minus log10 of concentrations in mol/L.

* 13961 7G3_H1.107_L1_Fab_His (Fab, V domains shown, also called XENP13961) VH: QVQLQQSGAEVKKPGASVKVSCKASGYTFTDYYMKWVRQAPGQSLEWMGDIIPSNGATFYNQKFKGKATLTVDRSTSTAYMELSSLRSEDTAVYYCARSHLLRASWFAYWGQGTLVTVSS VL: DFVMTQSPDSLAVSLGERATINCKSSQSLLNSGNQKNYLTWYQQKPGQPPKLLIYWASTRESGVPDRFTGSGSGTDFTLTISSLQAEDVAVYYCQNDYSYPYTFGGGTKLEIKR | 9.83

Exercise: Looking for the measured pKd of 13760 7G3_H0L0_Fab_His (Fab, V domains shown, Fab of the murine 7G3 variable regions; also called XENP13760) VH: EVQLQQSGPELVKPGASVKMSCKASGYTFTDYYMKWVKQSHGKSLEWIGDIIPSNGATFYNQKFKGKATLTVDRSSSTAYMHLNSLTSEDSAVYYCTRSHLLRASWFAYWGQGTLVTVSA VL: DFVMTQSPSSLTVTAGEKVTMSCKSSQSLLNSGNQKNYLTWYLQKPGQPPKLLIYWASTRESGVPDRFTGSGSGTDFTLTISSVQAEDLAVYYCQNDYSYPYTFGGGTKLEIKR , can you help?
Solution: 9.80

Exercise: Looking for the measured pKd of 13963 7G3_H1.109_L1_Fab_His (Fab, V domains shown, also called XENP13963) VH: QVQLQQSGAEVKKPGASVKVSCKASGYTFTDYYMKWVKQSHGKSLEWMGDIIPSNGATFYNQKFKGKATLTVDRSTSTAYMELSSLRSEDTAVYYCARSHLLRASWFAYWGQGTLVTVSS VL: DFVMTQSPDSLAVSLGERATINCKSSQSLLNSGNQKNYLTWYQQKPGQPPKLLIYWASTRESGVPDRFTGSGSGTDFTLTISSLQAEDVAVYYCQNDYSYPYTFGGGTKLEIKR , can you help?
Solution: 10.13

Exercise: Looking for the measured pKd of 13965 7G3_H1.107_L1.57_Fab_His (Fab, V domains shown, also called XENP13965) VH: QVQLQQSGAEVKKPGASVKVSCKASGYTFTDYYMKWVRQAPGQSLEWMGDIIPSNGATFYNQKFKGKATLTVDRSTSTAYMELSSLRSEDTAVYYCARSHLLRASWFAYWGQGTLVTVSS VL: DFVMTQSPDSLAVSLGERATINCKSSQSLLNTGNQKNYLTWYQQKPGQPPKLLIYWASTRESGVPDRFTGSGSGTDFTLTISSLQAEDVAVYYCQNDYSYPYTFGGGTKLEIKR , can you help?
Solution: 10.20
